- System: Vero
- assay info: Cytotoxicity against african green monkey Vero cells after 72 hrs
- Assay type: cell-based
- study conditions: Chlorocebus sabaeus
pIC50: −log10 of the molar value.
Below: a set of entries, each annotated with reported pIC50.

Worked examples, 4 molecules total:
{"molecule": "O=[N+]([O-])c1cc2n(n1)CC(OCc1ccc(OCc3ccccc3)cc1)CO2 (stereo not given)", "pIC50": 4.09}
{"molecule": "O=[N+]([O-])c1nc2n(n1)C[C@H](OCc1ccc(OC(F)(F)F)cc1)CO2", "pIC50": "< 3.89"}
{"molecule": "O=[N+]([O-])c1cn2c(n1)S(=O)(=O)CC(OCc1ccc(OCc3ccccc3)cc1)C2 (stereo not given)", "pIC50": "< 3.89"}
{"molecule": "O=[N+]([O-])c1cn2c(n1)SCC(OCc1ccc(OCc3ccccc3)cc1)C2 (stereo not given)", "pIC50": "< 3.89"}

// moving on: another record for pIC50
Data request: So what does the record say about pIC50 for CN1CC(OCc2ccc(OCc3ccccc3)cc2)Cn2nc([N+](=O)[O-])cc21 (stereo not given) ?
Data returned: < 3.89
